Source of measurements: the supplement of paper PMC8975748

- System: Saccharomyces cerevisiae BY4741 SeMeCo community
- test_name: mean cell size (pixel area) (pixels); higher = larger cells
- condition: 10 µM; 24 h; SM minimal medium
Where a name gives a salt, the structure may show the parent alone.
property_name: mean cell size
Lab note: write the figure by itself, no unit.

Summary for this compound, Cc1ccc(-c2ncc(Cl)cc2-c2ccc(S(C)(=O)=O)cc2)cn1 [Etoricoxib] : mean cell size is 12.4

Summary for this compound, CCOC(=O)C1=C(C)NC(C)=C(C(=O)OC)C1c1cccc(Cl)c1Cl (stereo unspecified) [Felodipine] : mean cell size is 12.6

Summary for this compound, NC[C@@H]1O[C@H](O[C@H]2[C@@H](O)[C@H](O[C@@H]3[C@@H](O)[C@H](N)C[C@H](N)[C@H]3O[C@H]3O[C@H](CO)[C@@H](O)[C@H](O)[C@H]3N)O[C@@H]2CO)[C@H](N)[C@@H](O)[C@@H]1O [Paromomycin Sulfate] : mean cell size is 12.3

Summary for this compound, CC[N+](CC)(CC)CCOc1cccc(OCC[N+](CC)(CC)CC)c1OCC[N+](CC)(CC)CC [Gallamine Triethiodide] : mean cell size is 12.6

Summary for this compound, COc1ccc2c(c1)c(CC(=O)OCC(=O)O)c(C)n2C(=O)c1ccc(Cl)cc1 [Acemetacin] : mean cell size is 12.5

Summary for this compound, COCC1=C(C(=O)OC(C)OC(=O)OC(C)C)N2C(=O)[C@@H](NC(=O)/C(=N\OC)c3csc(N)n3)[C@H]2SC1 (stereo partly specified) [Cefpodoxime proxetil] : mean cell size is 12.3

Summary for this compound, Cc1c(-c2ccccc2)oc2c(C(=O)OCCN3CCCCC3)cccc2c1=O [Flavoxate HCl] : mean cell size is 12

Summary for this compound, Nc1ccc2cc3ccc(N)cc3nc2c1 [Proflavine] : mean cell size is 12.1

====

- Tested on: Saccharomyces cerevisiae BY4741 SeMeCo community
- test_name: z-score of subpopulation abundance vs DMSO median, subpopulation auxotrophic for L; higher = larger share of this subpopulation than in DMSO controls
- condition: 10 µM; 24 h; SM minimal medium; subpopulation (auxotrophy): L
Below: a set of entries, each annotated with reported z-score of subpopulation abundance.
Lab note: write the figure by itself, no unit.

Consider the worked cases shown below.
Summary for this molecule, CCN(CC)CC#CCOC(=O)C(O)(c1ccccc1)C1CCCCC1 (stereo unspecified) : z-score of subpopulation abundance is -0.14

Summary for this molecule, CC1(C)[C@H](C(=O)O)N2C(=O)C[C@H]2S1(=O)=O [Sulbactam sodium] : z-score of subpopulation abundance is -0.23

Summary for this molecule, C[C@]12CCC3=C4CCC(=O)C=C4CC[C@H]3[C@@H]1CC[C@@]2(O)CC#N : z-score of subpopulation abundance is 0.12

Summary for this molecule, CC[C@H](C)C[C@H](C)CCCCCCCCC(=O)N[C@H]1C[C@@H](O)[C@@H](NCCN)NC(=O)[C@@H]2[C@@H](O)CCN2C(=O)[C@H]([C@H](O)CCN)NC(=O)[C@H]([C@H](O)[C@@H](O)c2ccc(O)cc2)NC(=O)[C@@H]2C[C@@H](O)CN2C(=O)[C@H]([C@@H](C)O)NC1=O [Caspofungin Acetate] : z-score of subpopulation abundance is 5.93

Summary for this molecule, CC1=C[C@H]2C(=O)O[C@H]3C[C@@H](C/C=C(\C)C[C@@H](C)/C=C/C=C4\CO[C@H](/C1=N\O)[C@@]42O)O[C@@]1(CC[C@H](C)[C@@H](C)O1)C3.CC[C@H]1O[C@]2(CC[C@@H]1C)C[C@@H]1C[C@@H](C/C=C(\C)C[C@@H](C)/C=C/C=C3\CO[C@@H]4/C(=N\O)C(C)=C[C@@H](C(=O)O1)[C@]34O)O2 : z-score of subpopulation abundance is 0.14

Summary for this molecule, NC(=O)C(c1ccccc1)(c1ccccc1)[C@@H]1CCN(CCc2ccc3c(c2)CCO3)C1 : z-score of subpopulation abundance is -0.21

More entries:
Summary for this molecule, O=C(c1ccccc1)c1ccc2n1CCC2C(=O)O (stereo unspecified) [Ketorolac] : z-score of subpopulation abundance is -0.04

Summary for this molecule, CCCCCOc1ccc(-c2cc(-c3ccc(C(=O)N[C@H]4C[C@@H](O)[C@@H](O)NC(=O)[C@@H]5[C@@H](O)[C@@H](C)CN5C(=O)[C@H]([C@H](O)CC(N)=O)NC(=O)[C@H]([C@H](O)[C@@H](O)c5ccc(O)c(OS(=O)(=O)O)c5)NC(=O)[C@@H]5C[C@@H](O)CN5C(=O)[C@H]([C@@H](C)O)NC4=O)cc3)no2)cc1 [Micafungin Sodium] : z-score of subpopulation abundance is 5.22
